Experiment: Cmax in BALB/c mouse model of mBSA-induced delayed type hypersensitivity at 3 mg/kg, po administered twice daily for 7 days followed by mBSA challenge and measured after 24 hrs
Assay type: ADME, organism-based
Set-up: route oral, time 8 day, dose 3 mg/kg
Details: in vivo
Test Readout: Cmax (nM)
Numbers only, in nM.

Please list Cmax recorded for the compound `Cc1c(-c2ccc(NC(=O)c3c(F)cccc3F)cc2)cccc1-c1nn(C)c(=O)o1`
1600

====

Target: Tumor necrosis factor (Homo sapiens, UniProt P01375)
Sequence (P01375 whole entry): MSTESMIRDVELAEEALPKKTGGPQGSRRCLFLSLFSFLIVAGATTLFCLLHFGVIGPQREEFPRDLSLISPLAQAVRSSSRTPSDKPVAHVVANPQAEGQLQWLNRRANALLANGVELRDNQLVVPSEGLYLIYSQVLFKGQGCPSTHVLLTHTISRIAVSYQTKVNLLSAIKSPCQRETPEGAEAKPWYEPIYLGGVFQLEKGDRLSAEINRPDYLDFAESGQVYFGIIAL
Experiment: Inhibition of TNF-alpha in thapsigargin stimulated human whole blood
Test Readout: IC50 (nM)
Answers are plain numbers, in nM.

State measured IC50 of the compound `Cc1c(-c2ccc(NC(=O)c3c(F)cccc3F)cc2)cccc1-c1nn(C)c(=O)o1` with Tumor necrosis factor (Homo sapiens, UniProt P01375).
694
